Cited source for all entries: FireProtDB (doi:10.1038/75151)

B1: Cold shock protein CspB, P41016 (parent)
chain: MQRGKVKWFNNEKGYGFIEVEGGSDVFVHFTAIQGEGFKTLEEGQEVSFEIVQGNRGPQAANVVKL

Variants of: B1
Condition Notes: Bacillus caldolyticus; pH 7; 70 °C; Thermal; CD; Sodium cacodylate-HCl 0.1 M; NaCl 2 M; reversible: yes; structure 1C9O; whole UniProt chain shown
Quick rule: ddG of mutation (higher = less stable) of at least 0.07 kcal/mol means satisfied, below that means not satisfied.

These solved cases illustrate the format of a correct answer.
N11S ... not satisfied
R3E ... satisfied
V64T ... satisfied

Is ddG of mutation (higher = less stable) at least 0.07 kcal/mol? Consider "T31S"
not satisfied

Quick check, ddG of mutation (higher = less stable) >= 0.07 kcal/mol? "L66E"
satisfied
